Tested on: rumen microorganisms (mixed microbial population of rumen contents)
method: Enhancement of intraruminal propionic acid production, batch culture fermentation of rumen contents
Format: cell-based, bovine (rumen-fistulated)
condition_parameters: Table 7; 5 μg/ml; 9 h, 39° C.; 0 μg/ml: 36.1
assay_readout: % Propionic Acid (%)
Express the result in % but write the number alone.

Solved cases (3 shown):
- CCCCCCCCCCCCCCCCCC(=O)OCC1(O)OC(C2CC(C)C(C3(C)CCC(C4(C)CCC5(CC(O)C(C)C(C(C)C(OC(=O)CC)C(C)C(=O)O)O5)O4)O3)O2)C(C)CC1C (stereo not shown) [L. C18, laidlomycin stearate]: 44.6
- CCC(=O)OC(C(C)C(=O)O)C(C)C1OC2(CCC(C)(C3CCC(C)(C4OC(C5OC(O)(COC(=O)C6CCC6)C(C)CC5C)CC4C)O3)O2)CC(O)C1C (stereo not shown) [Cyclobutylcarboxylate, laidlomycin cyclobutylcarboxylate]: 51.7
- CCC(=O)OC(C(C)C(=O)O)C(C)C1OC2(CCC(C)(C3CCC(C)(C4OC(C5OC(O)(COC(=O)C6CCCCC6)C(C)CC5C)CC4C)O3)O2)CC(O)C1C (stereo not shown) [Cyclohexylcarboxylate, laidlomycin cyclohexylcarboxylate]: 51.6

// next entry
# % Propionic Acid (compound: CCCCC(=O)OCC1(O)OC(C2CC(C)C(C3(C)CCC(C4(C)CCC5(CC(O)C(C)C(C(C)C(OC(=O)CC)C(C)C(=O)O)O5)O4)O3)O2)C(C)CC1C (stereo not shown) [L. C5, laidlomycin pentanoate] ) is 49.9

----------
Below is a list of entries, each paired with its recorded % Propionic Acid value.
System: rumen microorganisms (mixed microbial population of rumen contents)
method: Enhancement of intraruminal propionic acid production, batch culture fermentation of rumen contents
Type: cell-based, bovine (rumen-fistulated)
condition_parameters: Table 7; 1.25 μg/ml; 9 h, 39° C.; 0 μg/ml: 36.1
Express the result in % but write the number alone.

Solved cases (3 shown):
• CCCCC(=O)OCC1(O)OC(C2CC(C)C(C3(C)CCC(C4(C)CCC5(CC(O)C(C)C(C(C)C(OC(=O)CC)C(C)C(=O)O)O5)O4)O3)O2)C(C)CC1C (stereo not shown) [L. C5, laidlomycin pentanoate] = 48.7
• CCC(=O)OC(C(C)C(=O)O)C(C)C1OC2(CCC(C)(C3CCC(C)(C4OC(C5OC(O)(COC(=O)C6CC6)C(C)CC5C)CC4C)O3)O2)CC(O)C1C (stereo not shown) [Cyclopropylcarboxylate, laidlomycin cyclopropylcarboxylate] = 49.7
• CCC(=O)OC(C(C)C(=O)O)C(C)C1OC2(CCC(C)(C3CCC(C)(C4OC(C5OC(O)(COC(C)=O)C(C)CC5C)CC4C)O3)O2)CC(O)C1C (stereo not shown) [L. C2] = 50.7

// next entry
The compound CCCCCCCCCCCCCCCCCC(=O)OCC1(O)OC(C2CC(C)C(C3(C)CCC(C4(C)CCC5(CC(O)C(C)C(C(C)C(OC(=O)CC)C(C)C(=O)O)O5)O4)O3)O2)C(C)CC1C (stereo not shown) [L. C18, laidlomycin stearate] , tested on rumen microorganisms (mixed microbial population of rumen contents), showed % Propionic Acid of 40.0

----------
Test system: rumen contents (lactic acid accumulation)
method: Inhibition of lactic acid accumulation, second batch culture fermentation of rumen contents with glucose
Format: cell-based, bovine (rumen fistulated)
condition_parameters: Bos taurus, 6 h, read-out: Accumulation of Lactic Acid - % of Control, Table 4; .31 μg/ml; 6 h, 39° C.
assay_readout: activity at 0.31 µg/mL (%)
Express the result in % but write the number alone.

Solved cases (2 shown):
• CCC(=O)OC(C(C)C(=O)O)C(C)C1OC2(CCC(C)(C3CCC(C)(C4OC(C5OC(O)(CO)C(C)CC5C)CC4C)O3)O2)CC(O)C1C (centres unmarked) = 121
• CCCC(=O)OCC1(O)OC(C2CC(C)C(C3(C)CCC(C4(C)CCC5(CC(O)C(C)C(C(C)C(OC(=O)CC)C(C)C(=O)O)O5)O4)O3)O2)C(C)CC1C (centres unmarked) [L. C4, monobutyrate of laidlomycin] = 38

The molecule CCCCCC(=O)OCC1(O)OC(C2CC(C)C(C3(C)CCC(C4(C)CCC5(CC(O)C(C)C(C(C)C(OC(=O)CC)C(C)C(=O)O)O5)O4)O3)O2)C(C)CC1C (centres unmarked) [L. C6, laidlomycin hexanoate] , tested on rumen contents (lactic acid accumulation), showed activity at 0.31 µg/mL of 60

The molecule CCCCC(=O)OCC1(O)OC(C2CC(C)C(C3(C)CCC(C4(C)CCC5(CC(O)C(C)C(C(C)C(OC(=O)CC)C(C)C(=O)O)O5)O4)O3)O2)C(C)CC1C (centres unmarked) [L. C5, laidlomycin pentanoate] , tested on rumen contents (lactic acid accumulation), showed activity at 0.31 µg/mL of 109

The molecule CCC(=O)OC(C(C)C(=O)O)C(C)C1OC2(CCC(C)(C3CCC(C)(C4OC(C5OC(O)(COC(=O)C(C)C)C(C)CC5C)CC4C)O3)O2)CC(O)C1C (centres unmarked) [L. iso C4, laidlomycin isobutyrate] , tested on rumen contents (lactic acid accumulation), showed activity at 0.31 µg/mL of 37

----------
System: rumen microorganisms (mixed microbial population of rumen contents)
method: Enhancement of intraruminal propionic acid production, batch culture fermentation of rumen contents
Type: cell-based, bovine (rumen-fistulated)
condition_parameters: Table 5; .63 μg/ml; 9 h, 39° C.; 0 μg/ml: 35.5
Below is a list of entries, each paired with its recorded % Propionic Acid value.

• CCCCCCCCCCCC(=O)OCC1(O)OC(C2CC(C)C(C3(C)CCC(C4(C)CCC5(CC(O)C(C)C(C(C)C(OC(=O)CC)C(C)C(=O)O)O5)O4)O3)O2)C(C)CC1C (stereo not shown) [L. C12, laidlomycin dodecanoate] = 43.8%
• CCCCCCCCCC(=O)OCC1(O)OC(C2CC(C)C(C3(C)CCC(C4(C)CCC5(CC(O)C(C)C(C(C)C(OC(=O)CC)C(C)C(=O)O)O5)O4)O3)O2)C(C)CC1C (stereo not shown) [L. C10, laidlomycin decanoate] = 43.6%
• CCCCCCC(=O)OCC1(O)OC(C2CC(C)C(C3(C)CCC(C4(C)CCC5(CC(O)C(C)C(C(C)C(OC(=O)CC)C(C)C(=O)O)O5)O4)O3)O2)C(C)CC1C (stereo not shown) [L. C7, laidlomycin heptanoate] = 45.3%

// next entry
# % Propionic Acid (compound: CCCCCCCC(=O)OCC1(O)OC(C2CC(C)C(C3(C)CCC(C4(C)CCC5(CC(O)C(C)C(C(C)C(OC(=O)CC)C(C)C(=O)O)O5)O4)O3)O2)C(C)CC1C (stereo not shown) [L. C8, laidlomycin octanoate] ) is 43.9%

----------
System: rumen microorganisms (mixed microbial population of rumen contents)
method: Enhancement of intraruminal propionic acid production, batch culture fermentation of rumen contents
Assay type: cell-based, bovine (rumen-fistulated)
condition_parameters: Table 5; 1.25 μg/ml; 9 h, 39° C.; 0 μg/ml: 35.5
Experimental: Enhancement of intraruminal propionic acid production is determined using a batch culture fermentation system. […] After 9 hours of incubation at 39° C., concentrations of individual volatile fatty acids in each incubation vessel are determined by gas-liquid chromatography. The net production of each individual volatile fatty acid (acetic [AA], propionic [PA] and butyric [BA]) is calculated as the difference between the concentration after incubation and the concentration before incubation. […]
Below is a list of entries, each paired with its recorded % Propionic Acid value.
Express the result in % but write the number alone.

Solved cases (3 shown):
* CCCCCCCCCCCC(=O)OCC1(O)OC(C2CC(C)C(C3(C)CCC(C4(C)CCC5(CC(O)C(C)C(C(C)C(OC(=O)CC)C(C)C(=O)O)O5)O4)O3)O2)C(C)CC1C (stereo not shown) [L. C12, laidlomycin dodecanoate] | 45.3
* CCCCCCCC(=O)OCC1(O)OC(C2CC(C)C(C3(C)CCC(C4(C)CCC5(CC(O)C(C)C(C(C)C(OC(=O)CC)C(C)C(=O)O)O5)O4)O3)O2)C(C)CC1C (stereo not shown) [L. C8, laidlomycin octanoate] | 46.4
* CCCCCCC(=O)OCC1(O)OC(C2CC(C)C(C3(C)CCC(C4(C)CCC5(CC(O)C(C)C(C(C)C(OC(=O)CC)C(C)C(=O)O)O5)O4)O3)O2)C(C)CC1C (stereo not shown) [L. C7, laidlomycin heptanoate] | 46.2

// next entry
The compound CCCCCCCCCC(=O)OCC1(O)OC(C2CC(C)C(C3(C)CCC(C4(C)CCC5(CC(O)C(C)C(C(C)C(OC(=O)CC)C(C)C(=O)O)O5)O4)O3)O2)C(C)CC1C (stereo not shown) [L. C10, laidlomycin decanoate] , tested on rumen microorganisms (mixed microbial population of rumen contents), showed % Propionic Acid of 45.5

----------
Test system: rumen contents (lactic acid accumulation)
method: Inhibition of lactic acid accumulation, second batch culture fermentation of rumen contents with glucose
Type: cell-based, bovine (rumen fistulated)
condition_parameters: Table 8; .313 μg/ml; 6 h, 39° C.; 0 μg/ml: 40.47
assay_readout: Lactic Acid Accumulation (μ mol/ml)
Express the result in μ mol/ml but write the number alone.

Solved cases (2 shown):
• CCCCC(=O)OCC1(O)OC(C2CC(C)C(C3(C)CCC(C4(C)CCC5(CC(O)C(C)C(C(C)C(OC(=O)CC)C(C)C(=O)O)O5)O4)O3)O2)C(C)CC1C (stereo not shown) [L. C5, laidlomycin pentanoate] = 24.62
• CCC(=O)OC(C(C)C(=O)O)C(C)C1OC2(CCC(C)(C3CCC(C)(C4OC(C5OC(O)(COC(=O)C6CCCC6)C(C)CC5C)CC4C)O3)O2)CC(O)C1C (stereo not shown) [Cyclopentylcarboxylate, laidlomycin cyclopentylcarboxylate] = 24.75

# Lactic Acid Accumulation (μ mol/ml) (compound: CCC(=O)OC(C(C)C(=O)O)C(C)C1OC2(CCC(C)(C3CCC(C)(C4OC(C5OC(O)(COC(=O)C6CCCCC6)C(C)CC5C)CC4C)O3)O2)CC(O)C1C (stereo not shown) [Cyclohexylcarboxylate, laidlomycin cyclohexylcarboxylate] ) is 35.55

# Lactic Acid Accumulation (μ mol/ml) (compound: CCC(=O)OC(C(C)C(=O)O)C(C)C1OC2(CCC(C)(C3CCC(C)(C4OC(C5OC(O)(COC(=O)C6CCC6)C(C)CC5C)CC4C)O3)O2)CC(O)C1C (stereo not shown) [Cyclobutylcarboxylate, laidlomycin cyclobutylcarboxylate] ) is 23.25
